Data credit: patent US12539292B2

- test.system: BRM (Homo sapiens)
- Construct: In-Cell Western Screen of BRM Degradation in SW1573 Cells; endogenous in cells; host or cells: SW1573
- method.description: In-cell Western screen of BRM degradation in SW1573 cells (Dmax and DC50)
- Type: cell-based
- stated.conditions: target protein degradation; read-out: BRM DC50
So I've got a bunch of compounds here, and I need their DC50 values.

The compound Cc1ncsc1-c1ccc([C@H](C)NC(=O)[C@@H]2C[C@@H](O)CN2C(=O)[C@H](c2cc(OCC[C@H]3CC[C@H](O[C@H]4C[C@H](Oc5cc(N6C7CCC6CN(c6cc(-c8ccccc8O)nnc6N)C7)ccn5)C4)CC3)no2)C(C)C)cn1 showed DC50 equal to > 30 nM

The compound Cc1nccn1-c1ccc([C@H](C)NC(=O)[C@@H]2C[C@@H](O)CN2C(=O)[C@H](c2cc(OCCN3CCC(O[C@H]4C[C@H](Oc5cc(N6C7CCC6CN(c6cc(-c8ccccc8O)nnc6N)C7)ccn5)C4)CC3)no2)C(C)C)cn1 showed DC50 equal to > 30 nM

----------
So I've got a bunch of compounds here, and I need their Dmax values.
- test.system: BRM (Homo sapiens, UniProt P51531)
- Construct: In-Cell Western Screen of BRM Degradation in SW1573 Cells; endogenous in cells; host or cells: SW1573
- Sequence (P51531 whole entry): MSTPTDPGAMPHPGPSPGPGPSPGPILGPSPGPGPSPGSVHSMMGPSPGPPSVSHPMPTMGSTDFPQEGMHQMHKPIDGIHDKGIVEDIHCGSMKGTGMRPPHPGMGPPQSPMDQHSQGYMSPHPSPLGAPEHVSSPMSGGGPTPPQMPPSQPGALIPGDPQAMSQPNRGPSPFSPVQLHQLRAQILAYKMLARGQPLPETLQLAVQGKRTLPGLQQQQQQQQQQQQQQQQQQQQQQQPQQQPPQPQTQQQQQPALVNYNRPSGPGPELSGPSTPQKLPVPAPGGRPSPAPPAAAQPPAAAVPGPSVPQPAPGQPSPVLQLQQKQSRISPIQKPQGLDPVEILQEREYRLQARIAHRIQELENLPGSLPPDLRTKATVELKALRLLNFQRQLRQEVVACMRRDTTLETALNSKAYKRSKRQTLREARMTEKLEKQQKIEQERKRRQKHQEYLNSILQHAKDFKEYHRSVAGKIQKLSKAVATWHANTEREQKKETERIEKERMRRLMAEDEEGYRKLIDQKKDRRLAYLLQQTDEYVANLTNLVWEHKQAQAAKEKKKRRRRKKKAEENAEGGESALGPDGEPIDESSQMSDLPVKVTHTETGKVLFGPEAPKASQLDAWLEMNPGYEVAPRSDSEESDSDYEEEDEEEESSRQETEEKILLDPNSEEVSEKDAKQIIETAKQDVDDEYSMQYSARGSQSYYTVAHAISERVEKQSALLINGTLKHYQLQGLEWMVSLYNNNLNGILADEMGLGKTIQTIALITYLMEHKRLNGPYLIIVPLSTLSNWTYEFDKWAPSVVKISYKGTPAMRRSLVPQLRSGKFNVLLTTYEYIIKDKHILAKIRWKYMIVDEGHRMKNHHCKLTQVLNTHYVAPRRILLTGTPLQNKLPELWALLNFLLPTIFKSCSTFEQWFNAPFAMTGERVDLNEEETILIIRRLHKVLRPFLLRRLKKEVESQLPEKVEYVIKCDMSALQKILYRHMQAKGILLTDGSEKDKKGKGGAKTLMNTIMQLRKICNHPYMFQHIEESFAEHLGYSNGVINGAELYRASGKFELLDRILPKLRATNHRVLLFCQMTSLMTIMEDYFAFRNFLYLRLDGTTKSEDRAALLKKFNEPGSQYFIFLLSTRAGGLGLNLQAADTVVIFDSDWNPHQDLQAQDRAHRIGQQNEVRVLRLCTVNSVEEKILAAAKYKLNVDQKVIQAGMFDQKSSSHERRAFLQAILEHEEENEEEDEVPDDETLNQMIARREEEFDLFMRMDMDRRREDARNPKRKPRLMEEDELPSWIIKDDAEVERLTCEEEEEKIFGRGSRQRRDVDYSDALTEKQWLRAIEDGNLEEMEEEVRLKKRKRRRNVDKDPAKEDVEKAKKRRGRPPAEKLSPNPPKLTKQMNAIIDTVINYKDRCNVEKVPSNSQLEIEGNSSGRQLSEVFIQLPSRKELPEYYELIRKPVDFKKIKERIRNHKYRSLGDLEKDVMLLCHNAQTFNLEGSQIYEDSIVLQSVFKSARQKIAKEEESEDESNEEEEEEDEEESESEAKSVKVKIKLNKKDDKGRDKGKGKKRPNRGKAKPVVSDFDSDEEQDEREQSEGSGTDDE
- method.description: In-cell Western screen of BRM degradation in SW1573 cells (Dmax and DC50)
- Format: cell-based
- stated.conditions: BRM degradation, SW1573 cells; when tested at the top concentration of between 0.3 and 10 μM; read-out: Dmax (%) (% degraded)

The compound Cc1ncsc1-c1ccc(CNC(=O)[C@@H]2C[C@@H](O)CN2C(=O)[C@@H](NC(=O)COCCOCCn2cc(-c3cc(-c4ccccc4O)nnc3N)cn2)C(C)(C)C)cc1 [compound 11] showed Dmax equal to > 75%

The compound Cc1ncsc1-c1ccc(CNC(=O)[C@@H]2C[C@@H](O)CN2C(=O)[C@H](C(C)C)N2Cc3ccccc3C2=O)c(OCCOCCOCCOCCOCCOCCn2cc(-c3cc(-c4ccccc4O)nnc3N)cn2)c1 [compound 20] showed Dmax equal to 50 to 75%

The compound Cc1ncsc1-c1ccc(CNC(=O)[C@@H]2C[C@@H](O)CN2C(=O)[C@@H](c2cc(OCCOCCOCCOCCOCCn3cc(-c4cc(-c5ccccc5O)nnc4N)cn3)no2)C(C)C)cc1 [compound 19] showed Dmax equal to > 75%

The compound CC(=O)N1CC(NC(=O)[C@@H]2C[C@@H](O)CN2C(=O)[C@@H](c2cc(OCCN3CCN(CCOc4cc(N5C6CCC5CN(c5cc(-c7ccccc7O)nnc5N)C6)ccn4)CC3)no2)C(C)C)(c2ccc(-c3scnc3C)cc2)C1 [compound 127] showed Dmax equal to > 75%

The compound Cc1ncsc1-c1ccc([C@H](C)NC(=O)[C@@H]2C[C@@H](O)CN2C(=O)[C@@H](c2cc(OCCOCCOCCCCN3CC4(CCN(c5cc(-c6ccccc6O)nnc5N)CC4)C3)no2)C(C)C)cc1 [compound 72] showed Dmax equal to > 75%

----------
- test.system: BRM (Homo sapiens, UniProt P51531)
- Construct: In-Cell Western Screen of BRM Degradation in SW1573 Cells; endogenous in cells; host or cells: SW1573
- method.description: In-cell Western screen of BRM degradation in SW1573 cells (Dmax and DC50)
- Format: cell-based
- stated.conditions: BRM degradation, SW1573 cells; tested at the top concentration of between 0.3 and 10 μM; read-out: Dmax (%) (% degraded)
endpoint.name: Dmax

The molecule CC(C)[C@H](C(=O)N1C[C@H](O)C[C@H]1C(=O)N[C@@H](C)c1ccc(-c2nccn2C)cc1)c1cc(OCCN2CCN(CCOc3cc(N4C5CCC4CN(c4cc(-c6ccccc6O)nnc4N)C5)ccn3)CC2)no1 [compound 159] showed Dmax equal to < 50%

The molecule Cc1ncsc1-c1ccc([C@H](C)NC(=O)[C@@H]2C[C@@H](O)CN2C(=O)[C@H](c2cc(OCCN3CCC4(CC3)CC(OCCN3CCOC5(CCN(c6cc(-c7ccccc7O)nnc6N)CC5)C3)C4)no2)C(C)C)cc1 [compound 164] showed Dmax equal to 50 to 75%

The molecule Cc1cnsc1-c1ccc([C@H](C)NC(=O)[C@@H]2C[C@@H](O)CN2C(=O)[C@@H](c2cc(OCCN3CCN(CCOc4cc(N5C6CCC5CN(c5cc(-c7ccccc7O)nnc5N)C6)ccn4)CC3)no2)C(C)C)cc1 [compound 266] showed Dmax equal to > 75%

The molecule Cc1ncsc1-c1ccc([C@@H](COCC2CCOCC2)NC(=O)[C@@H]2C[C@@H](O)CN2C(=O)[C@@H](c2cc(OCCN3CCN(CCOc4cc(N5C6CCC5CN(c5cc(-c7ccccc7O)nnc5N)C6)ccn4)CC3)no2)C(C)C)cc1 [compound 273] showed Dmax equal to > 75%

----------
- test.system: BRM (Homo sapiens, UniProt P51531)
- Construct: In-Cell Western Screen of BRM Degradation in SW1573 Cells; endogenous in cells; host or cells: SW1573
- method.description: In-cell Western screen of BRM degradation in SW1573 cells (Dmax and DC50)
- Assay type: cell-based
- stated.conditions: SW1573; % degraded; when tested at the top concentration of between 0.3 and 10 μM; read-out: BRM Dmax (%)
endpoint.name: Dmax

Per the reported BRM (Homo sapiens, UniProt P51531) data, Cc1ncsc1-c1ccc([C@H](C)NC(=O)[C@@H]2C[C@@H](O)CN2C(=O)[C@@H](c2cc(OCC(F)(F)CN3CCC(O[C@H]4C[C@H](Oc5cc(N6C7CCC6CN(c6cc(-c8ccccc8O)nnc6N)C7)ccn5)C4)CC3)no2)C(C)C)cn1 has Dmax of > 75%

Per the reported BRM (Homo sapiens, UniProt P51531) data, CC(C)[C@@H](C(=O)N1C[C@H](O)C[C@H]1C(=O)N[C@@H](C)c1ccc(-c2nncs2)cc1)c1cc(OCCN2CCC(O[C@H]3C[C@H](Oc4cc(N5C6CCC5CN(c5cc(-c7ccccc7O)nnc5N)C6)ccn4)C3)CC2)no1 has Dmax of > 75%

----------
So I've got a bunch of compounds here, and I need their DC50 values.
- test.system: BRM (Homo sapiens)
- Construct: In-Cell Western Screen of BRM Degradation in SW1573 Cells; endogenous in cells; host or cells: SW1573
- method.description: In-cell Western screen of BRM degradation in SW1573 cells (Dmax and DC50)
- Assay type: cell-based
- stated.conditions: BRM degradation, SW1573 cells; Table 2D; read-out: *DC50

The compound Cc1ncsc1-c1cc(F)c([C@H](C)NC(=O)[C@@H]2C[C@@H](O)CN2C(=O)[C@@H](c2cc(OCCC3CCN(C[C@H]4C[C@H](Oc5cc(N6C7CCC6CN(c6cc(-c8ccccc8O)nnc6N)C7)ccn5)C4)CC3)no2)C(C)C)cc1F showed DC50 equal to < 2.5 nM

The compound Cc1ncsc1-c1cc(F)c([C@H](C)NC(=O)[C@@H]2C[C@@H](O)CN2C(=O)[C@@H](c2cc(OCCN3CCC(O[C@H]4C[C@H](Oc5cc(N6C7CCC6CN(c6cc(-c8ccccc8O)nnc6N)C7)ccn5)C4)CC3)no2)C(C)C)cn1 showed DC50 equal to < 2.5 nM

The compound Cc1ncsc1-c1ccc([C@H](C)NC(=O)[C@@H]2C[C@@H](O)CN2C(=O)[C@H](c2cc(OCCC3CCN(C[C@H]4C[C@H](N5CCC(C(C)n6cc(-c7cc(-c8ccccc8O)nnc7N)cn6)CC5)C4)CC3)no2)C(C)C)cc1 (stereo partly drawn) showed DC50 equal to > 30 nM

The compound Cc1ncsc1-c1ccc([C@H](C)NC(=O)[C@@H]2C[C@@H](O)CN2C(=O)[C@@H](c2cc(OCCC3CCN(C[C@H]4C[C@H](N5CCC(C(C)n6cc(-c7cc(-c8ccccc8O)nnc7N)cn6)CC5)C4)CC3)no2)C(C)C)cc1 (stereo partly drawn) showed DC50 equal to < 2.5 nM

The compound CC(C)[C@H](C(=O)N1C[C@H](O)C[C@H]1C(=O)N[C@@H](C)c1ccc(-n2ccnc2N)cc1)c1cc(N2CCC(CN3CCC(O[C@H]4C[C@H](Oc5cc(N6C7CCC6CN(c6cc(-c8ccccc8O)nnc6N)C7)ccn5)C4)CC3)CC2)no1 showed DC50 equal to > 30 nM

The compound Cc1nccn1-c1ccc([C@H](C)NC(=O)[C@@H]2C[C@@H](O)CN2C(=O)C(c2cc(N3CCC(CN4CCC(O[C@H]5C[C@H](Oc6cc(N7C8CCC7CN(c7cc(-c9ccccc9O)nnc7N)C8)ccn6)C5)CC4)CC3)no2)C(C)C)cc1 (stereo partly drawn) showed DC50 equal to < 2.5 nM

The compound Cc1ncsc1-c1ccc([C@H](C)NC(=O)[C@@H]2C[C@@H](O)CN2C(=O)[C@H](c2cc(N3CCC4(CC3)CN(C[C@H]3C[C@H](Oc5cc(N6C7CCC6CN(c6cc(-c8ccccc8O)nnc6N)C7)ccn5)C3)CCO4)no2)C(C)C)cc1 showed DC50 equal to > 30 nM

The compound Cc1ncsc1-c1cc(F)c([C@H](C)NC(=O)[C@@H]2C[C@@H](O)CN2C(=O)[C@H](c2cc(OCCN3CCC(O[C@H]4C[C@H](Oc5cc(N6C7CCC6CN(c6cc(-c8ccccc8O)nnc6N)C7)ccn5)C4)CC3)no2)C(C)C)cn1 showed DC50 equal to > 30 nM

The compound Cc1ncsc1-c1ccc([C@@H](NC(=O)[C@@H]2C[C@@H](O)CN2C(=O)[C@H](c2cc(N3CCC(CN4CCC(O[C@H]5C[C@H](Oc6cc(N7C8CCC7CN(c7cc(-c9ccccc9O)nnc7N)C8)ccn6)C5)CC4)CC3)no2)C(C)C)C(=O)N(C)C2CCC2)cc1 [compound 611] showed DC50 equal to > 30 nM

The compound CNC(=O)CCC[C@H](NC(=O)[C@@H]1C[C@@H](O)CN1C(=O)[C@H](c1cc(OCCN2CCC(O[C@H]3C[C@H](Oc4cc(N5C6CCC5CN(c5cc(-c7ccccc7O)nnc5N)C6)ccn4)C3)CC2)no1)C(C)C)c1ccc(-c2scnc2C)cc1 showed DC50 equal to > 30 nM

The compound Cc1ncsc1-c1ccc([C@H](C)NC(=O)[C@@H]2C[C@@H](O)CN2C(=O)[C@H](c2cc(OCC[C@H]3CCN(C[C@H]4C[C@H](Oc5cc(N6C7CCC6CN(c6cc(-c8ccccc8O)nnc6N)C7)ccn5)C4)C[C@@H]3C)no2)C(C)C)cc1 (racemic) showed DC50 equal to < 2.5 nM

The compound Cc1ncsc1-c1ccc([C@H](C)NC(=O)[C@@H]2C[C@@H](O)CN2C(=O)[C@H](c2cc(N3CCC(OC4CCN(CC5CC(CN6CCC([C@@H](C)n7cc(-c8cc(-c9ccccc9O)nnc8N)cn7)CC6)C5)CC4)CC3)no2)C(C)C)cc1 (single isomer, unassigned) showed DC50 equal to < 2.5 nM

The compound COc1nc(-c2scnc2C)c(F)cc1[C@@H](C)NC(=O)[C@@H]1C[C@@H](O)CN1C(=O)[C@@H](c1cc(OCCN2CCC(O[C@H]3C[C@H](Oc4cc(N5C6CCC5CN(c5cc(-c7ccccc7O)nnc5N)C6)ccn4)C3)CC2)no1)C(C)C showed DC50 equal to > 30 nM

The compound COc1nc(-c2scnc2C)c(F)cc1[C@H](C)NC(=O)[C@@H]1C[C@@H](O)CN1C(=O)[C@@H](c1cc(OCCN2CCC(O[C@H]3C[C@H](Oc4cc(N5C6CCC5CN(c5cc(-c7ccccc7O)nnc5N)C6)ccn4)C3)CC2)no1)C(C)C showed DC50 equal to < 2.5 nM

The compound Cc1ncsc1-c1ccc([C@H](C)NC(=O)[C@@H]2C[C@@H](O)CN2C(=O)[C@@H](c2cc(N3CCN(CCN4CCC(C(C)n5cc(-c6cc(-c7ccccc7O)nnc6N)cn5)CC4)CC3)no2)C(C)C)cc1 (stereo partly drawn) showed DC50 equal to < 2.5 nM
